Target: Thromboxane A2 receptor (Rattus norvegicus, UniProt P34978)
Sequence (P34978 whole entry): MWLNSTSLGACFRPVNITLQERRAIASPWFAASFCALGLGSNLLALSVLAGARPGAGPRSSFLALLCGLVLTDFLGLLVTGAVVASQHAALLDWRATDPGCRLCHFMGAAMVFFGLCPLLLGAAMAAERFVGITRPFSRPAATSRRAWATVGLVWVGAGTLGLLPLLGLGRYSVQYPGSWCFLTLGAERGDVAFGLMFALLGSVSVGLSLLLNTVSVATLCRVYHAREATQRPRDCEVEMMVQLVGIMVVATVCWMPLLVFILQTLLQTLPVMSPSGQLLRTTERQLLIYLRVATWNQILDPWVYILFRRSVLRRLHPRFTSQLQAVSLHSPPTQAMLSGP
Assay: Compound was tested in vitro for Thromboxane A2 receptor antagonism by inhibiting contraction of rat aorta induced by the stable thromboxane agonist U-46,619
Type: functional, tissue-based
Conditions: read-out: pA2 (converted)
readout: Kb (nM)

# substance-smiles, unit-symbol, Kb
records = [
    ("Cc1c(Cc2ccncc2)c2cc(CCC(=O)O)ccc2n1CCNS(=O)(=O)c1ccc(F)cc1", "nM", 0.0741),
]

(A) Cc1c(C)n(CCNS(=O)(=O)c2ccc(F)cc2)c2ccc(CCC(=O)O)cc12
(B) O=C(O)COc1ccc(CCNS(=O)(=O)c2ccccc2)cc1
(C) Cc1c(Cc2cccnc2)c2cc(CCC(=O)O)ccc2n1CCNS(=O)(=O)c1ccc(F)cc1
Ordering: ascending Kb. # respond with the labels, arranged in the requested order
C, A, B
